assay.summary: in vitro
condition.label: human, Caco-2
Quick reference for Papp A→B at 2 h, 1 µM among some compounds
Report only the number, with the unit ×10⁻⁶ cm/s understood.

Check out these entries, answers already filled in.
Can you share its Papp A→B at 2 h, 1 µM? I mean this compound: Cn1cc(-c2ccc(-c3cnc(N)c4ccc(C(=O)N5CC(F)(F)C5)nc34)cc2)cn1 23.9

Item Cn1cc(-c2ccc(-c3cnc(N)c4ccc(C(=O)NC5CC5)cc34)cc2)cn1 has what recorded Papp A→B at 2 h, 1 µM? 32.5

I would be grateful if you could share the reported Papp A→B at 2 h, 1 µM for Cn1cc(-c2ccc(-c3cnc(N)c4ccc(C(=O)N5CC(C)(F)C5)cc34)cc2)cn1 . 25.8

Now consider a different compound.
Need Papp A→B at 2 h, 1 µM, item Cn1cc(-c2ccc(-c3cnc(N)c4ccc(C(=O)N5CC(C)(F)C5)nc34)cc2)cn1 27.6
